ASSAY METHOD TEXT: binders of probe aFGF2 on microarray, primary screen, stem cell growth factor project, biochemical, small-molecule microarray, fluorescence 635/667 (AID 1067);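 note: measures binding of biotinylated aFGF2 protein to printed compounds on slides; z-score merges feature fluorescence and signal-to-noise across triplicate slides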
CONDITION LABEL: higher = more signal
RECORDED METRIC: composite z-score
API note: the answer field is a bare number with no unit suffix.

> print(dat)
                               smiles.entry    recorded.metric  numeric.readout
1  CCN1C(=O)[C@H]2[C@H]3[C@H](O)[C@H](O)CC(=NOCC(C)C)[C@@H]3CC[C@H]2C1=O  composite z-score           -0.142

Please fill in: composite z-score reported for CC(=O)Nc1ccc([C@@H]2N[C@H](C(=O)O)CC[C@H]2C)cc1 = -0.135

Please fill in: composite z-score reported for CC(C)CON=C1C[C@@H](O)[C@@H](O)[C@@H]2[C@@H]3C(=O)N(C(C)(C)C)C(=O)[C@@H]3CC[C@H]12 = -0.133

Please fill in: composite z-score reported for CO[C@H]1COC(=O)[C@@H](Cc2ccccc2)NC(=O)[C@@H](C)COC(=O)CCC[C@@H]1C = -0.0319

* * *

ASSAY METHOD TEXT: osmotic lysis modulators in infected erythrocytes, primary screen, PSAC antagonist project, cell-based, P. falciparum Indochina, OD700, 3 h (AID 1156)
CONDITION LABEL: higher = more signal, called active from +8 up or from −8 down
RECORDED METRIC: z-score
API note: the answer field is a bare number with no unit suffix.

Below, each entry is followed by its recorded z-score result.
> print(dat)
                                   compound  numeric.readout
1  CCOC(=O)C1=NO[C@@]2(C=C(Br)C3(OCCCO3)[C@H]3O[C@H]32)C1            0.157
2  CCN1C(=O)[C@H]2[C@H]3[C@H](O)[C@H](O)CC(=O)[C@H]3CC[C@H]2C1=O           -0.669
3  COC(=O)[C@@H]1CC[C@H](C)[C@@H](c2ccc(C)cc2)N1C(=O)c1ccc(C=NO[C@H](C)c2cn([C@H](CO)Cc3ccccc3)nn2)cc1             1.91
4  C=C(C)C(=O)OCC1CN2[C@@H](CC[C@@H](C)[C@@H]2c2ccc(Br)cc2)C(=O)O1 (some centres not stated)            0.189
5  COc1ccc(C#C[C@@H]2C=C[C@H](OC(C)=O)[C@@H](COC(C)=O)O2)cc1           -0.544
6  COC(=O)CC=C[C@@H](C)[C@@H](C=NO[C@H](C)c1cn([C@H](CO)Cc2ccccc2)nn1)NS(=O)(=O)c1ccc(C)cc1            0.605

Kindly consider the entry below.
Please fill in: z-score reported for COc1ccc(O[C@@H]2[C@H](O)CO[C@H]2C=Cc2ccccc2)cc1 = -0.433

* * *

ASSAY METHOD TEXT: basal RPMI8226 mitochondrial membrane potential changes, profiling panel, cell-based, JC-1 fluorescence, 24 h, 100 nL compound (AID 1169); note: test concentration not given here
CONDITION LABEL: RPMI8226 myeloma, JC-1 mitochondrial potential fluorescence, higher = more signal
Reported z-score is given for each of the following compounds.
API note: the answer field is a bare number with no unit suffix.

Below, each entry is followed by its recorded z-score result.
> print(dat)
                                   compound  numeric.readout
1  O=C1CCCC=C1C(O)CCOC(c1ccccc1)(c1ccccc1)c1ccccc1 (stereo not drawn)           -0.879
2  O=C1C[C@@H](O)[C@@H](O)[C@@H]2[C@@H]3C(=O)N(Cc4ccccc4)C(=O)[C@@H]3CC[C@@H]12            0.139
3  COC(=O)CC=C[C@@H](C)[C@@H](C=NO[C@@H](C)c1cn([C@H](CO)Cc2ccccc2)nn1)NS(=O)(=O)c1ccc(C)cc1           -0.249
4  CCCCc1nc2c(c3c1C[C@H](C)OC3)CN(CCOc1ccccc1)CC2            0.539
5  CO[C@H]1COC(=O)[C@@H](Cc2ccccc2)NC(=O)[C@@H](C)COC(=O)CCC[C@@H]1C           -0.161

Please fill in: z-score reported for COC(=O)CC=C[C@@H](C)[C@@H]1C=C[C@H](O)[C@@H](CO)O1 = -0.229

Please fill in: z-score reported for CO[C@H]1COC(=O)CC=C[C@@H](C)[C@H](OC)COC(=O)CCC[C@@H]1C = -0.509

Please fill in: z-score reported for C[C@@H](c1ccccc1)N1C(=O)[C@H]2[C@H]3[C@H](O)[C@H](O)CC(=O)[C@H]3CC[C@H]2C1=O = -0.826
